Source listed as patent US20220048967A1.

What hGLP1R cAMP EC50 ratio was measured for each of the following?
# assay-target: human GLP-1 receptor (human, UniProt P43220 24-463)
# protocol: cell-based or functional assay
Numbered stars: 1 amine (or outer) side, 2 acyl side, 3 side chain; on linkers, the order of the positions; unused ones are H or OH. Square brackets hold non-standard residues; d marks the D form. Side chains are listed from the residue outwards. Ends that are not written are not given here. * marks the point of attachment. C20 diacid = O=C(O)CCCCCCCCCCCCCCCCCCC(=O)*; γGlu = O=C(O)[C@H](CCC(=O)[*:2])N[*:1]; Desaminohistidyl = O=C(CCc1c[nH]cn1)*; αMeF = C[C@](N)(Cc1ccccc1)C(=O)O; αMeK = C[C@](N)(CCCCN)C(=O)O; Dab = NCC[C@H](N)C(=O)O; AEEA = NCCOCCOCC(=O)O; Aib = CC(C)(N)C(=O)O
Give bare numbers.

Please give hGLP1R cAMP EC50 ratio, item by item, for the list that follows.
1. Y[Aib]EGTFTSDYSILLDKIAQKEFIQYLLE[Aib]GPSSGAPPPS-NH2 (not fully specified (residue 20)) [Example 14]
2. XAEGTFTSDYSILLDKKAQXAFIEYLIEGGPSSGAPPPS (N-terminal Ac; D-Tyr1; K17((2-[2-(2-Amino-ethoxy)-ethoxy]-acetyl)2-(γ-Glu)-CO-(CH2)18-CO2H); Aib20; C-terminal NH2) [Example 79]
3. YXEGTXTSDYSILLDKKAQXAFIEYLIEGG (Aib2; αMeF6; K17((2-[2-(2-Amino-ethoxy)-ethoxy]-acetyl)2-(γ-Glu)-CO-(CH2)18-CO2H); Aib20; C-terminal NH2) [Example 98]
4. YXEGTFTSDYSIXLDKKAQXAFIEYXIEGGPSSGAPPPS (not fully specified; Aib2; αMeF13 as printed (likely αMeL13); K17((2-[2-(2-Amino-ethoxy)-ethoxy]-acetyl)2-(γ-Glu)-CO-(CH2)18-CO2H); Aib20; αMeF26 as printed (likely αMeL26); C-terminal NH2) [Example 75]
5. YXEGTFTSDYSIXLDKKAQXAXIEYLIEGGPSSGAPPPS (not fully specified; Aib2; αMeF13 as printed (likely αMeL13); K17((2-[2-(2-Amino-ethoxy)-ethoxy]-acetyl)2-(γ-Glu)-CO-(CH2)18-CO2H); Aib20; αMeF22; C-terminal NH2) [Example 74]

1: 0.0306; 2: 0.041; 3: 0.384; 4: 0.0359; 5: 0.115

Hey, can you go through the list below and give me hGLP1R cAMP EC50 ratio for every item?
1. YXEGTXTSDVSIXLDXKAQXEFIXXLIEGGPSSGAPPPS (Aib2; αMeF(2F)6; αMeL13; Orn16; K17((2-[2-(2-Amino-ethoxy)-ethoxy]-acetyl)2-(γ-Glu)-CO-(CH2)16-CO2H); Aib20; D-Glu24; αMeY25; C-terminal NH2) [Example 5]
2. YXEGTXTSDYSILLDKKAQXAFIEYLIEGGPSSGAPPPS (Aib2; αMeF6; K17((2-[2-(2-Amino-ethoxy)-ethoxy]-acetyl)2-(γ-Glu)-CO-(CH2)18-CO2H); Aib20; C-terminal NH2) [Example 57]
3. YXXGTFTSDYSILLDKKAQXAFIEYLIEGGPSSGAPPPS (Aib2; Aad3; K17((2-[2-(2-Amino-ethoxy)-ethoxy]-acetyl)2-(γ-Glu)-CO-(CH2)18-CO2H); Aib20; C-terminal NH2) [Example 89]

[2.69, 0.996, 0.175]

Hi there! I need hGLP1R cAMP EC50 ratio for each item below, if you can.
1. YXEGTXTSDYSILLDKIAQXKFIEYLIEGG (Aib2; αMeF6; Aib20; K21((2-[2-(2-Amino-ethoxy)-ethoxy]-acetyl)2-(γ-Glu)-CO-(CH2)18-CO2H); C-terminal NH2) [Example 94]
2. YXEGTFTSDYSILLDKKAQXAXIEYLIEGGPSSGAPPPS (Aib2; K17((2-[2-(2-Amino-ethoxy)-ethoxy]-acetyl)2-(γ-Glu)-CO-(CH2)18-CO2H); Aib20; αMeF22; C-terminal NH2) [Example 67]
3. [Desaminohistidyl][Aib]EGTFTSDYSILLDKK([AEEA-AEEA-γGlu-C20 diacid])AQ[Aib]AFIEYLIEGGPSSGAPPPS-NH2 [Example 106]

[0.196, 0.123, 1.42]

The following binders each have a reported value; give each one's hGLP1R cAMP EC50 ratio.
1. XXEGTFTSDYSILLDKKAQXAFIEYLIEGGPSSGAPPPS (DesTyr1; Aib2; K17((2-[2-(2-Amino-ethoxy)-ethoxy]-acetyl)2-(γ-Glu)-CO-(CH2)18-CO2H); Aib20; C-terminal NH2) [Example 107]
2. YXEGTXTSDYSIXLDKKAQXAFIEYLIEGGPSSGAPPPS (not fully specified; Aib2; αMeF6; αMeF13 as printed (likely αMeL13); K17((2-[2-(2-Amino-ethoxy)-ethoxy]-acetyl)2-(γ-Glu)-CO-(CH2)18-CO2H); Aib20; C-terminal NH2) [Example 69]
3. H[Aib]EGTFTSDYSI[αMeF]LDKK([Dab-AEEA-Dab-AEEA-C20 diacid])AQ[αMeK]AFIQYLLA[Aib]GPSSGAPPPS-NH2 [Example 19]
4. Y[Aib]EGTFTSDYSILLDKIAQ[Aib]AFIKYLIEGGPSSGAPPPS-NH2 (not fully specified (residue 24)) [Example 34]
5. H[Aib]EGTFTSDYSILLDKKAQ[Aib]AFIEYLLE[Aib]GPSSGAPPPS-NH2 (not fully specified (residue 17)) [Example 15]
6. H[Aib]EGTFTSDYSI[αMeF]LDKK([Dab-AEEA-Dab-AEEA-C20 diacid])AQ[αMeK]AFIQYLLA[Aib]GPSSGAPKPS-NH2 [Example 18]
7. YXEGTFTSDYSXLLDKKAQXAFIEYLIEGGPSSGAPPPS (Aib2; D-Ile12; K17((2-[2-(2-Amino-ethoxy)-ethoxy]-acetyl)2-(γ-Glu)-CO-(CH2)18-CO2H); Aib20; C-terminal NH2) [Example 82]
8. [Desaminohistidyl][Aib]EGTFTSDYSILLDKK([AEEA-AEEA-γGlu-C20 diacid])AQ[Aib]AFIEYLIEGGPSSGAPPPS-NH2 (also: ψ[NHCO] bond between DesHis1 and Aib2) [Example 105]

1: 1.1; 2: 0.85; 3: 0.532; 4: 0.0392; 5: 1.65; 6: 0.589; 7: 0.00325; 8: 1.51

Give measured hGLP1R cAMP EC50 ratio for every item shown.
1. YXEGTFTSDYSILLDKKAQXAFIEYLIXGGPSSGAPPPS (Aib2; K17((2-[2-(2-Amino-ethoxy)-ethoxy]-acetyl)2-(γ-Glu)-CO-(CH2)18-CO2H); Aib20; D-Glu28; C-terminal NH2) [Example 83]
2. YXEGTFTSDYSIXLDEKAQXAFIEYLLEGGPSSGAPPPS (not fully specified; Aib2; αMeF13 as printed (likely αMeL13); K17((2-[2-(2-Amino-ethoxy)-ethoxy]-acetyl)2-(γ-Glu)-CO-(CH2)18-CO2H); Aib20; C-terminal NH2) [Example 66]

[0.166, 0.255]
